Numbers sourced from patent US20240182536A1.

- target system: T1, human IL-18 binding protein (IL-18BP) (human, UniProt O95998 31-194)
- T1 construct: also called hu IL-18BP; hIL18BP
- T1 sequence (looked up): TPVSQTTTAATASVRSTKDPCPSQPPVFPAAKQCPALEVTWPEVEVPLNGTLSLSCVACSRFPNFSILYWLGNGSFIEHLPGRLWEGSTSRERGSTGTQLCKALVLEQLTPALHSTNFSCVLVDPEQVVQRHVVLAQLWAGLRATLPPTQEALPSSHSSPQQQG
- assay name: Octet BLI
experimental readout: koff (s⁻¹)
The answer is to be given in s⁻¹; state only the numeric part.

Bench note: what koff did IL-18 variant G3K, N91I, K53S (ligand) YFKKLESKLSVIRNLNDQVLFIDQGNRPLFEDMTDSDMRDNAPRTIFIISMYSDSQPRGMAVTISVKSEKISTLSSENKIISFKEMNPPDIIKDTKSDIIFFQRSVPGHDNKMQFESSSYEGYFLASEKERDLFKLILKKEDELGDRSIMFTVQNED show? 0.000406

Here is the next binder: IL-18 variant G3S, K53S (ligand) YFSKLESKLSVIRNLNDQVLFIDQGNRPLFEDMTDSDMRDNAPRTIFIISMYSDSQPRGMAVTISVKSEKISTLSSENKIISFKEMNPPDNIKDTKSDIIFFQRSVPGHDNKMQFESSSYEGYFLASEKERDLFKLILKKEDELGDRSIMFTVQNED 0.00338

Here is the next binder: IL-18 variant G3R, N91M, K53A (ligand, also called G3R/K53A/N91M) YFRKLESKLSVIRNLNDQVLFIDQGNRPLFEDMTDSDMRDNAPRTIFIISMYADSQPRGMAVTISVKSEKISTLSSENKIISFKEMNPPDMIKDTKSDIIFFQRSVPGHDNKMQFESSSYEGYFLASEKERDLFKLILKKEDELGDRSIMFTVQNED 0.00031
